These entries and their values trace back to patent US20170306031A1.

- Tgt: T1, human GFRAL expressed on cells (human, UniProt Q6UXV0 20-394)
- T1 sequence: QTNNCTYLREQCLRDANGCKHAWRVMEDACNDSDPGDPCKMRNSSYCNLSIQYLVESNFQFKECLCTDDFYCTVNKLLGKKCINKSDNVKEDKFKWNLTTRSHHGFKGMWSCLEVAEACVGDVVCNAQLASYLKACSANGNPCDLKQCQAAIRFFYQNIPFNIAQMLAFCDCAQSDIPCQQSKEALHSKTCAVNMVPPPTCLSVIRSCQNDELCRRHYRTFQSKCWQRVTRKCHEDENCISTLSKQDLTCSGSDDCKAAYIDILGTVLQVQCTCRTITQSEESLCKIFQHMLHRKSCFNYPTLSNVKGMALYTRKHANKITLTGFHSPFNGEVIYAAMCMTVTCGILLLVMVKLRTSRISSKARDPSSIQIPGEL
- Assay: cell-based or functional assay
Readout name: IC50, ELK1-luciferase reporter (hGFRAL/hRET)
Field: value (include unit after the number)

Binder: humanized anti-GFRAL antibody HC-344h/LC-344h (antibody, IgG1, V domains shown, humanized 3P10) VH: QIQLVQSGAEVKKPGSSVKVSCKASGYTFTDYGVIWVRQAPGQGLKWMGWINTYTGEPTYADDLKGRVTFTADESTSTAYMELSSLRSEDTAVYYCARRYGPEDIDYWGQGTTVTVSS VL: DVVLTQSPLSLPVTLGQPASISCRASESVDNYGISFMSWFQQRPGQSPRLLIYAASHQGSGVPDRFSGSGSGTDFTLKISRVEAEDVGVYFCLQSKEVPWTFGGGTKVEIK
Recorded measurement: 5.7 nM

Binder: humanized anti-GFRAL antibody HC-344h/LC-344c (antibody, V domains shown, humanized 3P10) VH: QIQLVQSGAEVKKPGSSVKVSCKASGYTFTDYGVIWVRQAPGQGLKWMGWINTYTGEPTYADDLKGRVTFTADESTSTAYMELSSLRSEDTAVYYCARRYGPEDIDYWGQGTTVTVSS VL: DIVLTQSPLSLPVTLGQPASISCRASESVDNYGISFMSWFQQRPGQSPRLLIYAASHQGSGVPDRFSGSGSGTDFTLKISRVEAEDVGVYFCLQSKEVPWTFGGGTKVEIK
Recorded measurement: 29.4 nM

Binder: humanized anti-GFRAL antibody HC-344e/LC-344h (antibody, IgG1, V domains shown, humanized 3P10; also called h3P10) VH: QVQLVQSGAEVKKPGSSVKVSCKASGYTFTDYGVIWVRQAPGQGLEWMGWINTYTGEPTYADDLKGRVTFTADESTSTAYMELSSLRSEDTAVYYCARRYGPEDIDYWGQGTTVTVSS VL: DVVLTQSPLSLPVTLGQPASISCRASESVDNYGISFMSWFQQRPGQSPRLLIYAASHQGSGVPDRFSGSGSGTDFTLKISRVEAEDVGVYFCLQSKEVPWTFGGGTKVEIK
Recorded measurement: 6.95 nM

Binder: humanized anti-GFRAL antibody HC-344a/LC-344h (antibody, IgG1, V domains shown, humanized 3P10) VH: QVQLVQSGAEVKKPGSSVKVSCKASGYTFTDYGVIWVRQAPGQGLEWMGWINTYTGEPTYADDLKGRVTITADESTSTAYMELSSLRSEDTAVYYCARRYGPEDIDYWGQGTTVTVSS VL: DVVLTQSPLSLPVTLGQPASISCRASESVDNYGISFMSWFQQRPGQSPRLLIYAASHQGSGVPDRFSGSGSGTDFTLKISRVEAEDVGVYFCLQSKEVPWTFGGGTKVEIK
Recorded measurement: 4.63 nM

Let's switch to this binder now.
Query (binder): humanized anti-GFRAL antibody HC-344a/LC-344c (antibody, IgG1, V domains shown, humanized 3P10) VH: QVQLVQSGAEVKKPGSSVKVSCKASGYTFTDYGVIWVRQAPGQGLEWMGWINTYTGEPTYADDLKGRVTITADESTSTAYMELSSLRSEDTAVYYCARRYGPEDIDYWGQGTTVTVSS VL: DIVLTQSPLSLPVTLGQPASISCRASESVDNYGISFMSWFQQRPGQSPRLLIYAASHQGSGVPDRFSGSGSGTDFTLKISRVEAEDVGVYFCLQSKEVPWTFGGGTKVEIK ; field requested: IC50, ELK1-luciferase reporter (hGFRAL/hRET) 7.26 nM
